- Tested on: MOLM-13 cells
- Experiment notes: MOLM13 CTG - analysis of cell proliferation (Cell Titre Glo)
- Assay type: cell-based
- Measurement parameters: Homo sapiens, geometric mean, read-out: CTG MOLM13 cells IC50 GEOMEAN
Property label: IC50 (µM)

Worked examples follow.
- Compound: "CCC(C)(C)CNCc1ccc2nc(CNC(=O)c3cc(=O)n4ccccc4n3)cn2c1 [Compound 292]"
  IC50 [µM]: 7.19
- Compound: "O=C(NCc1cn2cc(CNC[C@H]3C[C@H](F)C3)ccc2n1)c1cc(=O)n2ccccc2n1 [Compound 217]"
  IC50 [µM]: 2.93
- Compound: "OC1(CNCc2ccc3nc(Cn4cc(-c5ccc(F)c6[nH]ncc56)nn4)cn3c2)CCCCC1 [Example 306]"
  IC50 [µM]: 3.93
- Compound: "O=C(NCc1cn2cc(CNCC3(O)CCCCC3)ccc2n1)c1cc(=O)n2ccccc2n1 [Compound 209]"
  IC50 [µM]: 6.58
- Compound: "COC1(CNCc2ccc3nc(CNC(=O)c4cc(=O)n5ccccc5n4)cn3c2)CCC1 [Compound 273]"
  IC50 [µM]: 9.02
- Compound: "O=C(NCc1cn2cc(CNCC3(O)CCCC3)ccc2n1)c1cc(=O)n2ccccc2n1 [Compound 284]"
  IC50 [µM]: 7.4

A = CC1(CNCc2ccc3nc(CNC(=O)c4cc(=O)n5ccccc5n4)cn3c2)CCC1 [Compound 282]
B = CC1(C)CCN(Cc2ccc3nc(Cn4cc(-c5cccc6[nH]ncc56)nn4)cn3c2)CC1 [Example 251]
Q) Which item exceeds the other in IC50, A or B ? API: response body contains the label of the selected item.
A) A

a = CC(C)(C)CNCc1ccc2nc(Cn3cc(-c4cccc5[nH]ncc45)nn3)cn2c1 [Example 250]
b = CC1(F)CCN(Cc2ccc3nc(CNC(=O)c4cc(=O)n5ccccc5n4)cn3c2)CC1 [Compound 207]
Q) Min IC50? a | b API: response body contains the label of the selected item.
A) a
(a: 3 µM, b: 10.2 µM)

A = OC1(CNCc2ccc3nc(Cn4cc(-c5cccc6[nH]ncc56)nn4)cn3c2)CCCCC1 [Example 328]
B = CCC(C)CNCc1ccc2nc(CNC(=O)c3cc(=O)n4ccccc4n3)cn2c1 (stereo not shown) [Compound 285]
Q) Min IC50? A | B API: response body contains the label of the selected item.
A) A

###

- Study target: METTL3/14 (Homo sapiens)
- Construct: The enzyme used was full-length his-tagged METTL3; His; made in house
- Sequence (Q86U44 whole entry): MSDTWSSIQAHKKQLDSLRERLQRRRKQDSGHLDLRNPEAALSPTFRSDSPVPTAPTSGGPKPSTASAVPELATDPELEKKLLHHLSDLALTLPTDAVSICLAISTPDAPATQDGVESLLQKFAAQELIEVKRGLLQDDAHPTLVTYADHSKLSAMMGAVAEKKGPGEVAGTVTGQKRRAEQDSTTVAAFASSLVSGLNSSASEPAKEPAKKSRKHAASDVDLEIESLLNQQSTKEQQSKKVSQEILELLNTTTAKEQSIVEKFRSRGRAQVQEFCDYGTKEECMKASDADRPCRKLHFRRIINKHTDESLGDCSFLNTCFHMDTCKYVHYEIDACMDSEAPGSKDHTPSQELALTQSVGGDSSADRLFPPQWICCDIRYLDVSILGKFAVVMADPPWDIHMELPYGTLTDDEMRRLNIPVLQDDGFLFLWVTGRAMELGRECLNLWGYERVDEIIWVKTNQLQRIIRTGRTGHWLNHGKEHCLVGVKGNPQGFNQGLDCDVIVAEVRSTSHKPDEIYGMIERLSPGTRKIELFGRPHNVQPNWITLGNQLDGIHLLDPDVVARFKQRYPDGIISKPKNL
- Sequence (Q9HCE5 whole entry partner): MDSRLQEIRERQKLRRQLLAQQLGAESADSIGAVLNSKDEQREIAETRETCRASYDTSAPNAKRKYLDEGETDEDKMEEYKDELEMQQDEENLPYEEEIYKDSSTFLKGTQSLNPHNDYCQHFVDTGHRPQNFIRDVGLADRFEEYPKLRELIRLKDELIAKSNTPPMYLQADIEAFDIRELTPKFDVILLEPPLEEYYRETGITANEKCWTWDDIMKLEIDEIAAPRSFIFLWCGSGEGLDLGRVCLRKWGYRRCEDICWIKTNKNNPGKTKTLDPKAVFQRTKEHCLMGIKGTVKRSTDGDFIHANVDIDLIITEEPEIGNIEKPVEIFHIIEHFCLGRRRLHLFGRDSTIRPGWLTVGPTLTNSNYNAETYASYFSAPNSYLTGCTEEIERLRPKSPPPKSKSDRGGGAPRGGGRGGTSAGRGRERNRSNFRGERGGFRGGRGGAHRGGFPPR
- Experiment notes: METTL3/14 methyltransferase assay (METTL3_14 RFMS, RapidFire mass spectrometry);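 note: recombinant His-tagged METTL3 with FLAG-tagged METTL14 from baculovirus, SAH product quantified by mass spectrometry against isotope-labelled internal standards, 60 min at room temperature, scaled between no-RNA and DMSO-only wells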
- Assay type: biochemical
- Measurement parameters: read-out: METTL3_14 RFMS IC50
pIC50: −log10 of the molar value.
Property label: pIC50

- Compound: "O=C(NCc1cn2cc([C@H]3COC[C@@H](C4CCCCC4)N3)ccc2n1)c1cccc2[nH]ncc12 (racemic)"
  Property label: "pIC50"
  Numeric result: 5.91

I = O=C(NCc1cn2cc(CNC34CC(C3)C4)ccc2n1)c1cc(=O)n2ccccc2n1
II = CC(C)(C)CNCc1ccc2nc(Cn3cc(-c4ccc5[nH]ncc5c4)nn3)cn2c1
Q) Min pIC50? I | II API: response body contains the label of the selected item.
A) II
